Values were extracted from the SangsterLogP compilation.

PROPERTY: logP

Q) Recorded logP for "Oc1ccc(-c2cc(Cl)ccc2Cl)cc1" , please?
A) 4.63

Q) Name the reported logP value associated with the compound "Oc1c(Cl)cc(-c2ccc(Cl)cc2)cc1Cl"
A) 5.22

Q) Please report the recorded logP for "Oc1ccc(-c2c(Cl)cccc2Cl)cc1" .
A) 4.63

Q) Need logP of "Oc1ccc(-c2c(Cl)cc(Cl)cc2Cl)cc1" , thanks.
A) 5.22

###

PROPERTY: logP
I only need the number, thanks.

Q) Find the recorded logP belonging to "Oc1ccc(-c2ccc(O)cc2Cl)cc1" and report it.
A) 3.37

Q) Consider the compound "Oc1ccc(-c2ccc(Cl)cc2)cc1" and give its measured logP.
A) 4.04

Q) What value of measured logP is listed for "Oc1ccc(-c2cc(Cl)c(Cl)c(Cl)c2Cl)cc1" ?
A) 5.81

Q) Given "Oc1ccc(-c2ccccc2)c(Cl)c1" , state its recorded logP.
A) 4.04

Q) // returns reported logP for input "Oc1c(Cl)cc(-c2cc(Cl)c(O)c(Cl)c2)cc1Cl"
A) 5.14

Q) Return reported logP; argument: "Oc1ccc(-c2ccc(O)cc2)cc1"
A) 2.66

Q) Given "Oc1ccc(-c2ccccc2)cc1" , state its recorded logP.
A) 3.33
